Target: NAAA (N-Acylethanolamine Hydrolizing Acid Amidase) (Homo sapiens, UniProt Q02083)
Sequence (Q02083 29-359): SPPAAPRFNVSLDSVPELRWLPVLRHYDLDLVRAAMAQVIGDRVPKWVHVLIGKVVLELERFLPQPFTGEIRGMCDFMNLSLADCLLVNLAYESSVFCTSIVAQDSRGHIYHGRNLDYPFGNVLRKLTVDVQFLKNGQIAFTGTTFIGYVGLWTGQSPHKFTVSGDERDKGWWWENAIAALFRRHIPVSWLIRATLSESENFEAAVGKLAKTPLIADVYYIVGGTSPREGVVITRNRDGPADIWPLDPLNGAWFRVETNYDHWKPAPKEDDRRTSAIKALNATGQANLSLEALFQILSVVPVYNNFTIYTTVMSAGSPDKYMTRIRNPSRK
READOUT LABEL: IC50 (µM)
Record the value in µM, omitting the unit from your answer.

Form field - read-out: IC50; system: NAAA (N-Acylethanolamine Hydrolizing Acid Amidase) (Homo sapiens, UniProt Q02083); submitted item: "CCCCCCCCC=CCCCCCCCC1=NCCO1"
38.4

Next record, please: "CCCCCCCCCCCCCCCCCC1=NCCO1"
35
